Documented Fold Improvement Over Whole Cellulase Broth Tested on PCS across a set of molecules
Test system: pretreated corn stover (PCS)
test_details: Supplementation of CF-416 whole cellulase broth with single purified enzymes, saccharification of pretreated corn stover
Format: biochemical
condition_info: 0.4% single enzyme added to 0.5% CF-416 whole cellulase broth base; 74 g/L glucan, pH 5.0, 55° C., 50 μM copper
Source text: In this Example, M. thermophila-produced and purified GH61a, GH61p, GH61f, GH61n, CBH1a, CBH2b, AXE3, FAE, and Xyl3, were used to supplement the activity present in culture broths (i.e., “whole broth cellulase base”) of the M. thermophila strain CF-416 prepared using standard methods known in the art. […] The whole cellulase broth base and individual enzymes were characterized by standard BCA assays for total protein quantification. […]
assay_endpoint: Fold Improvement Over Whole Cellulase Broth Tested on PCS

molecule | recorded_value
AXE3: wild-type M. thermophila acetylxylan esterase (SEQ ID NO:167) (protein, listed as Myceliophthora thermophila) MKLLGKLSAALALAGSRLAAAHPVFDELMRPTAPLVRPRAALQQVTNFGSNPSNTKMFIYVPDKLAPNPPIIVAIHYCTGTAQAYYSGSPYARLADQKGFIVIYPESPYSGTCWDVSSRAALTHNGGGDSNSIANMVTYTLEKYNGDASKVFVTGSSSGAMMTNVMAAAYPELFAAGIAYSGVPAGCFYSQSGGTNAWNSSCANGQINSTPQVWAKMVFDMYPEYDGPRPKMQIYHGSADGTLRPSNYNETIKQWCGVFGFDYTRPDTTQANSPQAGYTTYTWGEQQLVGIYAQGVGHTVPIRGSDDMAFFGL | 0 (fold improvements less than 1.2×)
GH61f: M. thermophila GH61f (SEQ ID NO:29) (protein, listed as Myceliophthora thermophila) MKSFTLTTLAALAGNAAAHATFQALWVDGVDYGAQCARLPASNSPVTDVTSNAIRCNANPSPARGKCPVKAGSTVTVEMHQQPGDRSCSSEAIGGAHYGPVMVYMSKVSDAASADGSSGWFKVFEDGWAKNPSGGSGDDDYWGTKDLNSCCGKMNVKIPADLPSGDYLLRAEALALHTAGSAGGAQFYMTCYQLTVTGSGSASPPTVSFPGAYKATDPGILVNIHAPLSGYTVPGPAVYSGGSTKKAGSACTGCESTCAVGSGPTATVSQSPGSTATSAPGGGGGCTVQKYQQCGGQGYTGCTNCASGSTCSAVSPPYYSQCV | 1 (fold improvements of >1.2 to <1.5)
FAE: wild-type M. thermophila ferulic acid esterase (SEQ ID NO:170) (protein, listed as Myceliophthora thermophila) MISVPALALALLAAVQVVESASAGCGKAPPSSGTKSMTVNGKQRQYILQLPNNYDANKAHRVVIGYHWRDGSMNDVANGGFYDLRSRAGDSTIFVAPNGLNAGWANVGGEDITFTDQIVDMLKNDLCVDETQFFATGWSYGGAMSHSVACSRPDVFKAVAVIAGAQLSGCAGGTTPVAYLGIHGAADNVLPIDLGRQLRDKWLQTNGCNYQGAQDPAPGQQAHIKTTYSCSRAPVTWIGHGGGHVPDPTGNNGVKFAPQETWDFFDAAVGAAGAQSPMT | 1 (fold improvements of >1.2 to <1.5)
GH61p: M. thermophila GH61p (SEQ ID NO:70; alternative SEQ ID NO:73) (protein, listed as Myceliophthora thermophila) MKLTSSLAVLAAAGAQAHYTFPRAGTGGSLSGEWEVVRMTENHYSHGPVTDVTSPEMTCYQSGVQGAPQTVQVKAGSQFTFSVDPSIGHPGPLQFYMAKVPSGQTAATFDGTGAVWFKIYQDGPNGLGTDSITWPSAGKTEVSVTIPSCIEDGEYLLRVEHTPLPTAPAAQNRARSSPSPAAYKATDPGILFQLYWPIPTEYINPGPAPVSC | 3 (fold improvements ≧1.7)
GH61n: M. thermophila GH61n (SEQ ID NO:62; alternative SEQ ID NO:64) (protein, listed as Myceliophthora thermophila) MTKNAQSKQGVENPTSGDIRCYTSQTAANVVTVPAGSTIHYISTQQINHPGPTQYYLAKVPPGSSAKTFDGSGAVWFKISTTMPTVDSNKQMFWPGQNTYETSNTTIPANTPDGEYLLRVKQIALHMASQPNKVQFYLACTQIKITGGRNGTPSPLVALPGAYKSTDPGILVDIYSMKPESYQPPGPPVWRG | 1 (fold improvements of >1.2 to <1.5)
